Where do the numbers come from? From patent US20160264674A1.

Listed binders paired with reported EC50
Molecular target: T1, FLAG-tagged human APRIL (human, UniProt O75888 105-250, limits assumed)
T1 construct: also called FLAG-tagged APRIL; FLAG-APRIL; not shown: FLAG tag
T1 sequence (looked up): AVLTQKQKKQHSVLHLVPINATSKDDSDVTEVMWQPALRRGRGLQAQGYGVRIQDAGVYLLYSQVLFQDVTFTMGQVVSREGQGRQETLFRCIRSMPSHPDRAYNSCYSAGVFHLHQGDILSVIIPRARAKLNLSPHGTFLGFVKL
Assay: ELISA: FLAG-tagged human APRIL captured on anti-FLAG plate, purified antibody titrated
Write the number in nM without appending the unit.

Consider the following illustrative entries.
Input: Which measured EC50 value corresponds to VH13.VL15 (antibody, human IgG4 S228P, kappa, V domains shown, Humanized IgG4 (S241P, Kabat) with human kappa, from HEK293T; also called 13.15) VH: QVQLVQSGAEVKKPGASVKVSCKASGYTFTSYVMHWVRQAPGQGLEWMGYINPYNDAPKYNEKFKGRVTMTRDTSTSTVYMELSSLRSEDTAVYYCARGLGYALYYAMDYWGQGTMVTVSS VL: DIVMTQSPSTLSASVGDRVTITCKASQNVGNNVAWYQQKPGKAPKLLISSASNRDSGVPSRFSGSGSGTEFTLTISSLQPDDFATYFCQQYNIYPFTFGQGTKLEIKR ?
Output: 223

Input: Proceed to VH12.VL15 (antibody, human IgG4 S228P, kappa, V domains shown, Humanized IgG4 (S241P, Kabat) with human kappa, from HEK293T; also called 12.15) VH: QVQLVQSGAEVKKPGASVKVSCKASGYTFTSYVMHWVRQAPGQGLEWMGYINPYNDAPKYNEKFKGRVTMTRDTSISTAYMELSRLRSDDTAVYYCARGLGYALYYAMDYWGQGTTVTVSS VL: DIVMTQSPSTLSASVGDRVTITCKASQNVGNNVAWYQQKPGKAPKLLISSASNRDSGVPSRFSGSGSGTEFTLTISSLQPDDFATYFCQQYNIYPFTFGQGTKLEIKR
Output: 19.8

Input: Proceed to VH11.VL15 (antibody, human IgG4 S228P, kappa, V domains shown, Humanized IgG4 (S241P, Kabat) with human kappa, from HEK293T; also called 11.15) VH: QVQLVQSGAEVKKPGASVKVSCKASGYTFTSYVMHWVRQAPGQRLEWMGYINPYNDAPKYNEKFKGRVTITRDTSASTAYMELSSLRSEDTAVYYCARGLGYALYYAMDYWGQGTTVTVSS VL: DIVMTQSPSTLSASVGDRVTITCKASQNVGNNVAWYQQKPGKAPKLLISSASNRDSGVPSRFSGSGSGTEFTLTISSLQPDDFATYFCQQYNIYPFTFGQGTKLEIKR
Output: 121

Now, please, on to the next binder.
Input: Which measured EC50 value corresponds to VH14.VL15 (antibody, human IgG4 S228P, kappa, V domains shown, Humanized IgG4 (S241P, Kabat) with human kappa, from HEK293T) VH: QVQLVQSGAEVKKPGASVKVSCKASGYTFTSYVMHWVRQAPGQGLEWMGYINPYNDAPKYNEKFKGRVTMTRDTSASTAYMELSSLRSDDTAVYYCARGLGYALYYAMDYWGQGTTVTVSS VL: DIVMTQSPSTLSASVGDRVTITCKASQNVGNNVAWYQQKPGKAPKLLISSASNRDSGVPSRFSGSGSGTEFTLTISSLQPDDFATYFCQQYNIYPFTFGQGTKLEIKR ?
Output: 48.3
